Listed next: entries and their corresponding shrunken log2 fold change.
tested on: Escherichia coli TOP10; test: shrunken log2 fold change of peptide-encoding DNA abundance (4.5 h post-induction vs induction); higher = less antimicrobial activity (less host growth inhibition); conditions: time post-induction: 4.5 h; library: site-saturation at positions 5, 18, 19, 20

[
  {
    "sequenceText": "RRIRIRPPRLPRPRPRPKMVPRP",
    "shrunken log2 fold change": -0.159
  },
  {
    "sequenceText": "RRIRIRPPRLPRPRPRPQLNPRP",
    "shrunken log2 fold change": -0.499
  },
  {
    "sequenceText": "RRIRIRPPRLPRPRPRPNRLPRP",
    "shrunken log2 fold change": -0.286
  },
  {
    "sequenceText": "RRIRHRPPRLPRPRPRPGEYPRP",
    "shrunken log2 fold change": -0.219
  },
  {
    "sequenceText": "RRIRERPPRLPRPRPRPQEMPRP",
    "shrunken log2 fold change": -0.391
  },
  {
    "sequenceText": "RRIRVRPPRLPRPRPRPDSPPRP",
    "shrunken log2 fold change": 0.0663
  },
  {
    "sequenceText": "RRIRDRPPRLPRPRPRPWMVPRP",
    "shrunken log2 fold change": 0.333
  },
  {
    "sequenceText": "RRIRIRPPRLPRPRPRPCDGPRP",
    "shrunken log2 fold change": -0.00133
  },
  {
    "sequenceText": "RRIRIRPPRLPRPRPRPVTYPRP",
    "shrunken log2 fold change": -0.275
  },
  {
    "sequenceText": "RRIRWRPPRLPRPRPRPDSEPRP",
    "shrunken log2 fold change": 1.48
  },
  {
    "sequenceText": "RRIRKRPPRLPRPRPRPRDMPRP",
    "shrunken log2 fold change": 0.0936
  },
  {
    "sequenceText": "RRIRERPPRLPRPRPRPLDDPRP",
    "shrunken log2 fold change": -0.234
  },
  {
    "sequenceText": "RRIRHRPPRLPRPRPRPPWGPRP",
    "shrunken log2 fold change": 0.347
  },
  {
    "sequenceText": "RRIRTRPPRLPRPRPRPLRYPRP",
    "shrunken log2 fold change": -0.255
  },
  {
    "sequenceText": "RRIRHRPPRLPRPRPRPDYRPRP",
    "shrunken log2 fold change": -0.127
  }
]

---

system: Escherichia coli TOP10; assay: shrunken log2 fold change of peptide-encoding DNA abundance (4.5 h post-induction vs induction); higher = less antimicrobial activity (less host growth inhibition); details: time post-induction: 4.5 h; library: site-saturation at positions 5, 18, 19, 20;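 note: peptides expressed intracellularly from a pBAD plasmid library in pooled LB shake-flask culture, induced with 0.3% L-arabinose, DNA abundance read by NGS, three biological replicates, DESeq2 with apeglm shrinkage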
# cutoff 0.008 applies to shrunken log2 fold change; >= gives 1, < gives -1

[
  {
    "sequenceText": "RRIRYRPPRLPRPRPRPTHRPRP",
    "assignedClass": -1
  },
  {
    "sequenceText": "RRIRLRPPRLPRPRPRPVWPPRP",
    "assignedClass": 1
  },
  {
    "sequenceText": "RRIRQRPPRLPRPRPRPHSKPRP",
    "assignedClass": -1
  },
  {
    "sequenceText": "RRIRIRPPRLPRPRPRPGSHPRP",
    "assignedClass": 1
  },
  {
    "sequenceText": "RRIRCRPPRLPRPRPRPLQAPRP",
    "assignedClass": 1
  },
  {
    "sequenceText": "RRIRKRPPRLPRPRPRPNCRPRP",
    "assignedClass": -1
  },
  {
    "sequenceText": "RRIRQRPPRLPRPRPRPMWDPRP",
    "assignedClass": -1
  },
  {
    "sequenceText": "RRIRCRPPRLPRPRPRPKTVPRP",
    "assignedClass": -1
  },
  {
    "sequenceText": "RRIRKRPPRLPRPRPRPSFDPRP",
    "assignedClass": 1
  },
  {
    "sequenceText": "RRIRPRPPRLPRPRPRPYNEPRP",
    "assignedClass": -1
  },
  {
    "sequenceText": "RRIRGRPPRLPRPRPRPPLGPRP",
    "assignedClass": 1
  },
  {
    "sequenceText": "RRIRDRPPRLPRPRPRPRAGPRP",
    "assignedClass": 1
  },
  {
    "sequenceText": "RRIRTRPPRLPRPRPRPGMDPRP",
    "assignedClass": 1
  },
  {
    "sequenceText": "RRIRKRPPRLPRPRPRPCHHPRP",
    "assignedClass": -1
  },
  {
    "sequenceText": "RRIRCRPPRLPRPRPRPYNQPRP",
    "assignedClass": -1
  },
  {
    "sequenceText": "RRIRARPPRLPRPRPRPTTMPRP",
    "assignedClass": 1
  },
  {
    "sequenceText": "RRIRVRPPRLPRPRPRPGWWPRP",
    "assignedClass": 1
  },
  {
    "sequenceText": "RRIRPRPPRLPRPRPRPYWNPRP",
    "assignedClass": -1
  },
  {
    "sequenceText": "RRIRIRPPRLPRPRPRPWSEPRP",
    "assignedClass": -1
  },
  {
    "sequenceText": "RRIRIRPPRLPRPRPRPNKQPRP",
    "assignedClass": -1
  },
  {
    "sequenceText": "RRIRYRPPRLPRPRPRPQPLPRP",
    "assignedClass": -1
  },
  {
    "sequenceText": "RRIRCRPPRLPRPRPRPGHTPRP",
    "assignedClass": -1
  },
  {
    "sequenceText": "RRIRHRPPRLPRPRPRPPKCPRP",
    "assignedClass": 1
  },
  {
    "sequenceText": "RRIRGRPPRLPRPRPRPAMNPRP",
    "assignedClass": 1
  },
  {
    "sequenceText": "RRIRWRPPRLPRPRPRPMKPPRP",
    "assignedClass": -1
  },
  {
    "sequenceText": "RRIRIRPPRLPRPRPRPFRGPRP",
    "assignedClass": -1
  },
  {
    "sequenceText": "RRIRDRPPRLPRPRPRPINRPRP",
    "assignedClass": -1
  },
  {
    "sequenceText": "RRIRFRPPRLPRPRPRPERIPRP",
    "assignedClass": -1
  },
  {
    "sequenceText": "RRIRCRPPRLPRPRPRPAQAPRP",
    "assignedClass": 1
  },
  {
    "sequenceText": "RRIRTRPPRLPRPRPRPIFMPRP",
    "assignedClass": 1
  },
  {
    "sequenceText": "RRIRMRPPRLPRPRPRPVNYPRP",
    "assignedClass": -1
  },
  {
    "sequenceText": "RRIRNRPPRLPRPRPRPCHYPRP",
    "assignedClass": -1
  },
  {
    "sequenceText": "RRIRYRPPRLPRPRPRPVCVPRP",
    "assignedClass": -1
  },
  {
    "sequenceText": "RRIRGRPPRLPRPRPRPPTSPRP",
    "assignedClass": 1
  },
  {
    "sequenceText": "RRIRCRPPRLPRPRPRPPTWPRP",
    "assignedClass": 1
  },
  {
    "sequenceText": "RRIRQRPPRLPRPRPRPRQAPRP",
    "assignedClass": 1
  },
  {
    "sequenceText": "RRIRKRPPRLPRPRPRPMALPRP",
    "assignedClass": -1
  },
  {
    "sequenceText": "RRIRSRPPRLPRPRPRPAKKPRP",
    "assignedClass": 1
  },
  {
    "sequenceText": "RRIRGRPPRLPRPRPRPVAFPRP",
    "assignedClass": 1
  },
  {
    "sequenceText": "RRIRGRPPRLPRPRPRPLCGPRP",
    "assignedClass": 1
  },
  {
    "sequenceText": "RRIRTRPPRLPRPRPRPHTNPRP",
    "assignedClass": 1
  },
  {
    "sequenceText": "RRIRERPPRLPRPRPRPTIRPRP",
    "assignedClass": -1
  },
  {
    "sequenceText": "RRIRARPPRLPRPRPRPKWSPRP",
    "assignedClass": 1
  },
  {
    "sequenceText": "RRIRQRPPRLPRPRPRPTLKPRP",
    "assignedClass": -1
  },
  {
    "sequenceText": "RRIRSRPPRLPRPRPRPMHEPRP",
    "assignedClass": -1
  },
  {
    "sequenceText": "RRIRIRPPRLPRPRPRPSPKPRP",
    "assignedClass": -1
  },
  {
    "sequenceText": "RRIRHRPPRLPRPRPRPLIHPRP",
    "assignedClass": -1
  },
  {
    "sequenceText": "RRIRTRPPRLPRPRPRPWKAPRP",
    "assignedClass": 1
  },
  {
    "sequenceText": "RRIRWRPPRLPRPRPRPSPMPRP",
    "assignedClass": -1
  },
  {
    "sequenceText": "RRIRWRPPRLPRPRPRPGCMPRP",
    "assignedClass": 1
  },
  {
    "sequenceText": "RRIRFRPPRLPRPRPRPVPEPRP",
    "assignedClass": 1
  },
  {
    "sequenceText": "RRIRWRPPRLPRPRPRPLWVPRP",
    "assignedClass": 1
  },
  {
    "sequenceText": "RRIRKRPPRLPRPRPRPSHLPRP",
    "assignedClass": -1
  },
  {
    "sequenceText": "RRIRHRPPRLPRPRPRPIKQPRP",
    "assignedClass": -1
  },
  {
    "sequenceText": "RRIRIRPPRLPRPRPRPNSVPRP",
    "assignedClass": -1
  },
  {
    "sequenceText": "RRIRMRPPRLPRPRPRPNHIPRP",
    "assignedClass": -1
  },
  {
    "sequenceText": "RRIRMRPPRLPRPRPRPDANPRP",
    "assignedClass": 1
  },
  {
    "sequenceText": "RRIRTRPPRLPRPRPRPLTWPRP",
    "assignedClass": -1
  },
  {
    "sequenceText": "RRIRLRPPRLPRPRPRPWAKPRP",
    "assignedClass": 1
  },
  {
    "sequenceText": "RRIRDRPPRLPRPRPRPNRKPRP",
    "assignedClass": -1
  },
  {
    "sequenceText": "RRIRRRPPRLPRPRPRPVLYPRP",
    "assignedClass": -1
  },
  {
    "sequenceText": "RRIRDRPPRLPRPRPRPKVMPRP",
    "assignedClass": -1
  }
]

These entries and their values trace back to the supplement of paper PMC9112550.
